Biological target: HLA-C0801 (Homo sapiens, UniProt P10321, A176T/A330V/A97T/C350S/D114A/D138N/D33Y/E201K/E299G/L171W/L218V/M285V/M309V/M331V/P208H/Q277E/Q291P/R59Q/S123Y/S140F/S297R/S48A/T329A/T363A/V319A/V328M)
Assay: Competitive peptide binding assay, CIR-C0801
Conditions: HMy2.CIR-C0801 cells, reference Cy5-[…], class from inhibition at 5 and 15 μM, flow cytometry MFI; read-out: Binding affinity with HLA-C0801
Peptide text beside a SMILES is read from it.
# IC50 annotations
PROPERTY_MEASURED: IC50

1. CSCC[C@H](NC(=O)[C@H](CO)NC(=O)[C@H](CCCNC(=N)N)NC(=O)[C@@H](NC(=O)[C@H](CCCNC(=N)N)NC(=O)[C@H](C)NC(=O)[C@H](Cc1ccccc1)NC(=O)[C@H](CC(C)C)NC(=O)[C@@H](N)CCCNC(=N)N)[C@@H](C)O)C(=O)O [Epitope M41] (H-RLFARTRSM-OH; N-terminus and C-terminus assumed): 5 to 15 µM
2. CC[C@H](C)[C@H](N)C(=O)N[C@@H](C)C(=O)N[C@@H](CCSC)C(=O)N[C@@H](C)C(=O)N[C@@H](CS)C(=O)N[C@@H](CC(C)C)C(=O)N[C@H](C(=O)NCC(=O)N[C@@H](CC(C)C)C(=O)O)C(C)C [Epitope M44] (H-IAMACLVGL-OH; N-terminus and C-terminus assumed): > 15 µM
3. CC(C)C[C@H](NC(=O)[C@H](C)NC(=O)[C@@H](NC(=O)[C@H](Cc1ccccc1)NC(=O)[C@H](Cc1c[nH]c2ccccc12)NC(=O)[C@H](CO)NC(=O)[C@H](C)NC(=O)[C@@H](NC(=O)[C@@H](N)CC(N)=O)[C@@H](C)O)[C@@H](C)O)C(=O)O [Epitope M56, NTASWFTAL] (H-NTASWFTAL-OH; N-terminus and C-terminus assumed): 5 to 15 µM

Source: paper PMC12133982
